Taken from patent US9365583B2.

targetOrTestSystem: N-terminally GST-tagged DLK (catalytic domain amino acid 1-520) (Homo sapiens, UniProt Q12852)
Construct: N-terminally GST-tagged DLK (catalytic domain amino acid 1-520)
Sequence (Q12852 1-520): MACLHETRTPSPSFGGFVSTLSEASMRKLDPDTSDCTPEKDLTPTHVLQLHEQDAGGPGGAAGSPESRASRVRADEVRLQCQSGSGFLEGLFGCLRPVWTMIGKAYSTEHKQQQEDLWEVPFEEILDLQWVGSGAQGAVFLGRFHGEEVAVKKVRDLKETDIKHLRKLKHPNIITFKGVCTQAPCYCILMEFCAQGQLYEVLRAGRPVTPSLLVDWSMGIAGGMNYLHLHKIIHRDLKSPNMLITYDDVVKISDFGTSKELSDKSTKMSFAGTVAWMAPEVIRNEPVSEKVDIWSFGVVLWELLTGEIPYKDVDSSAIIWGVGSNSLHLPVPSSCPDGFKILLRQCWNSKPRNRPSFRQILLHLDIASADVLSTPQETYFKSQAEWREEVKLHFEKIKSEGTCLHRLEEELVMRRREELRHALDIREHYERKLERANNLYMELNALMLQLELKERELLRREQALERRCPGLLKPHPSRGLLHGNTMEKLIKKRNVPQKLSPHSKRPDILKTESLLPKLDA
testMethodNotes: DLK TR-FRET inhibition assay
testConditions: 5 nM GST-DLK, 40 nM HIS-MKK4 K131M substrate, 30 μM ATP, 60 minutes at ambient temperature
From the text: […]

compound	relation	Ki [nM]
CC(C)n1nc(-c2cnc(N)c(C(F)(F)F)c2)cc1[C@H]1[C@@H]2C[C@H](N3CCN[C@@H](C)C3)C[C@@H]21	=	4.9
Nc1ncc(-c2cc([C@H]3[C@@H]4C[C@H](N5CCCOCC5)C[C@@H]43)n(CC(F)F)n2)cc1C(F)(F)F	=	7.1
CC(C)n1nc(-c2cnc(N)c(OC(F)F)c2)cc1[C@H]1[C@@H]2C[C@H](N3CCC(F)(F)C3)C[C@@H]21	=	6.42
CC(C)n1nc(-c2cnc(N)c(OC(F)F)c2)cc1[C@H]1[C@@H]2C[C@H](N3CC[C@H](F)C3)C[C@@H]21	=	4.3
COC1CCN([C@@H]2C[C@@H]3[C@H](C2)[C@H]3c2cc(-c3cnc(N)c(OC(F)(F)F)c3)nn2C(C)C)CC1	=	1.8
CC(C)n1nc(-c2cnc(N)c(C(F)(F)F)c2)cc1[C@H]1[C@@H]2C[C@H](N3CCN4CCCC4C3)C[C@@H]21 (stereo partly drawn)	<	0.1

---

targetOrTestSystem: N-terminally GST-tagged DLK (catalytic domain amino acid 1-520) (Homo sapiens)
Construct: N-terminally GST-tagged DLK (catalytic domain amino acid 1-520); purchased Carna Bioscience
testMethodNotes: DLK TR-FRET inhibition assay
Assay type: biochemical
testConditions: 5 nM GST-DLK, 40 nM HIS-MKK4 K131M substrate, 30 μM ATP, 60 minutes at ambient temperature
pKi: −log10 of the molar value.

compound	relation	pKi
CCN1CCN([C@H]2C[C@@H]3[C@H](C2)[C@H]3c2cc(-c3cnc(N)c(C(F)(F)F)c3)nn2C(C)C)CC1	=	8.04
CC(C)n1nc(-c2cnc(N)c(C(F)(F)F)c2)cc1[C@H]1[C@@H]2C[C@@H](N3C[C@@H]4C[C@H]3CN4C)C[C@@H]21	=	8.44
CC(C)n1nc(-c2cnc(N)c(C(F)(F)F)c2)cc1[C@H]1[C@@H]2C[C@@H](N3CCN(C)C[C@@H]3C)C[C@@H]21	=	8.77
CC(C)n1nc(-c2cnc(N)c(OC(F)(F)F)c2)cc1[C@H]1[C@@H]2C[C@@H](N3CC4(CN(C)CCO4)C3)C[C@@H]21	=	8.66
CC(C)n1nc(-c2cnc(N)c(C(F)(F)F)c2)cc1[C@H]1[C@@H]2C[C@@H](N3C[C@@H]4C[C@H]3CO4)C[C@@H]21	=	8.85
CC(C)n1nc(-c2cnc(N)c(C(=O)N3CCCC3)c2)cc1[C@H]1[C@@H]2C[C@H](N3CC(F)C3)C[C@@H]21	<	6.49
COCCN(C)[C@H]1C[C@@H]2[C@H](C1)[C@H]2c1cc(-c2cnc(N)c(C(F)(F)F)c2)nn1C(C)C	=	8.24
CC(C)n1nc(-c2cnc(N)c(OC(F)(F)F)c2)cc1[C@H]1[C@@H]2C[C@@H](N3CC4(CCCO4)C3)C[C@@H]21	=	8.70
CC(C)n1nc(-c2cnc(N)c(OC(F)F)c2)cc1[C@H]1[C@@H]2C[C@@H](N3CCO[C@@H](C)C3)C[C@@H]21	=	9.13
CC(C)n1nc(-c2cnc(N)c(OC(F)F)c2)cc1[C@H]1[C@@H]2CC(F)(CN(C)C)C[C@@H]21 (mixture of isomers)	=	8.68
CC(C)n1nc(-c2cnc(N)c(C(F)(F)F)c2)cc1[C@H]1[C@@H]2C[C@H](N3CC(C#N)C3)C[C@@H]21	=	8.54
CC(C)n1nc(-c2cnc(N)c(C(F)(F)F)c2)cc1[C@H]1[C@@H]2C[C@@]3(CCN3C3COC3)C[C@@H]21	=	8.05
